Attribution: the supplement of paper PMC5998384

Consider the following sequences; for each one, report its thermal stability score.
System: HeLa Kyoto;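 further: synchronized HeLa Kyoto cells, proteins quantified by TMT10plex mass spectrometry, three biological replicates, mitosis taken 0.5 h after nocodazole release, G1/S directly after double thymidine block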
Assay Comment: thermal stability score vs G1/S (z-score of summed log2 fold changes over temperatures); higher = more thermally stable than in G1/S
Reported Conditions: cell cycle stage: early G1 (4.5 h after nocodazole release)
Output spec: single numeric token, no unit.

[Q] State the recorded thermal stability score for this entry: MAAPPGEYFSVGSQVSCRTCQEQRLQGEVVAFDYQSKMLALKCPSSSGKPNHADILLINLQYVSEVEIINDRTETPPPLASLNVSKLASKARTEKEEKLSQAYAISAGVSLEGQQLFQTIHKTIKDCKWQEKNIVVMEEVVITPPYQVENCKGKEGSALSHVRKIVEKHFRDVESQKILQRSQAQQPQKEAALSS [LSM12]
[A] -0.688

[Q] Reported thermal stability score for MAAAVPQRAWTVEQLRSEQLPKKDIIKFLQEHGSDSFLAEHKLLGNIKNVAKTANKDHLVTAYNHLFETKRFKGTESISKVSEQVKNVKLNEDKPKETKSEETLDEGPPKYTKSVLKKGDKTNFPKKGDVVHCWYTGTLQDGTVFDTNIQTSAKKKKNAKPLSFKVGVGKVIRGWDEALLTMSKGEKARLEIEPEWAYGKKGQPDAKIPPNAKLTFEVELVDID [FKBP3] : what is it?
[A] 0.0401
